target: Mu-type opioid receptor (Homo sapiens, UniProt P35372); assay type: functional, cell-based;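 note: U2OS cells with beta-arrestin recruitment to OPRM1 by beta-gal complementation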
Sequence (P35372 whole entry): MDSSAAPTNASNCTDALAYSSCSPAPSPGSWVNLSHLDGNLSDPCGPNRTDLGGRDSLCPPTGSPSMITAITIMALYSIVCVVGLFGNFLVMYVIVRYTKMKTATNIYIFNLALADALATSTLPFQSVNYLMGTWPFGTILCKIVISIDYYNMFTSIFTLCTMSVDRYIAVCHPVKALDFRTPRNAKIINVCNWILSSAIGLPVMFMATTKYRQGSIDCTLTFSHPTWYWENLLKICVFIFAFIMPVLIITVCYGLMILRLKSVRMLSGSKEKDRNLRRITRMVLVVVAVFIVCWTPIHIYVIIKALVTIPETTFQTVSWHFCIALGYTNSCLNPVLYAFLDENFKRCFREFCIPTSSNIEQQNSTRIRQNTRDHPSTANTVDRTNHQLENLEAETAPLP
Activity calls are given as the source filed them.
Catalogue of EC50 values

Lookup result for `Oc1cc2c(cc1O)[C@@H](c1ccccc1)CNCC2` ; measured EC50: 92.7 µM (inactive)

Lookup result for CCN(CC)C(=O)N[C@H]1C[C@@H]2c3cccc4[nH]cc(c34)C[C@H]2N(C)C1 [TERGURIDE] ; measured EC50: 92.5 µM (inactive)

Lookup result for `CCOc1ccc(NC(=O)CCN2CCN(c3ccccc3F)CC2)cc1` ; measured EC50: 92.6 µM (inactive)

Lookup result for `c1ccc(COc2cccc(CN3CCN(c4ccccn4)CC3)c2)cc1` ; measured EC50: 92.5 µM (inactive)

###

target: Ubiquitin-conjugating enzyme E2 N (Homo sapiens); assay type: functional;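 note: Dose-response confirmation in a TR-FRET assay detecting UBC13-driven polyubiquitin chain formation, inhibition measured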
Sequence (P61088 whole entry): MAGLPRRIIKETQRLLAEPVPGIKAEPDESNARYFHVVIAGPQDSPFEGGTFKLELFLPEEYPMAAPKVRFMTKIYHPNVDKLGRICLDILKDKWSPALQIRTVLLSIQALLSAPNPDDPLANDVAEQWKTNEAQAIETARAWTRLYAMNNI
Activity calls are given as the source filed them.
Could you please pick one outcome from this set? true = active, false = inactive

In [3]: df
Out[3]:
                                   molecule  class_label
0  Oc1[nH]c2ccccc2c1N=NC(S)=NCC1CCCO1 (configuration not stated)         true
1         Cc1cccc(Nc2cc(C)c3c(O)cccc3n2)c1C        false
2  COc1ccc(-c2sc3ccccc3c2-c2ccc(OCCN(C)C)cc2)cc1        false
3  CCCN1CCN(CCCNC(=O)c2cc3c(s2)-c2c(C)cccc2OC3)CC1        false
4  CSCCC(NC(=O)c1ccccc1Cl)C(=O)NNC(=O)c1csc(N2CCOCC2)n1 (configuration not stated)        false

Give the logged outcome of this assay for the following molecule: `O=C(CCCCCN1C(=O)c2ccccc2C1=O)Nc1ccc(S(=O)(=O)N2CCCCC2)cc1` true

Give the logged outcome of this assay for the following molecule: `CNC[C@@H](Cc1ccccc1)NC[C@@H](CC1CCCCC1)NCCCc1ccccc1` false

Give the logged outcome of this assay for the following molecule: `C#CCNC(=O)C1=C[C@H](c2cn(C(C)=O)c3ccccc23)C[C@H](OCc2ccc(CO)cc2)O1` false

Give the logged outcome of this assay for the following molecule: `COc1ccc(C(=O)Nn2c(SCC(=O)NCc3ccco3)nc3ccccc3c2=O)cc1` false

Give the logged outcome of this assay for the following molecule: Cc1ccc(C(C(=O)NCC2CCCO2)N(C(=O)c2snc(C(N)=O)c2N)c2ccc(C)c(C)c2)o1 (configuration not stated) false

Give the logged outcome of this assay for the following molecule: `CCOC(=O)c1cc(-c2ccncc2)nc2c1c(C)nn2C` true

Give the logged outcome of this assay for the following molecule: `Cc1ccc(-c2noc(CCC(=O)Nc3ccccc3N3CCN(C)CC3)n2)cc1` false

###

biological target: Zinc finger protein mex-5 (Caenorhabditis elegans); experiment: potency of MEX-5 RNA-binding blockers – biochemical, C. elegans, fluorescence polarization, dose response (AID 1960)
Sequence (Q9XUB2 whole entry): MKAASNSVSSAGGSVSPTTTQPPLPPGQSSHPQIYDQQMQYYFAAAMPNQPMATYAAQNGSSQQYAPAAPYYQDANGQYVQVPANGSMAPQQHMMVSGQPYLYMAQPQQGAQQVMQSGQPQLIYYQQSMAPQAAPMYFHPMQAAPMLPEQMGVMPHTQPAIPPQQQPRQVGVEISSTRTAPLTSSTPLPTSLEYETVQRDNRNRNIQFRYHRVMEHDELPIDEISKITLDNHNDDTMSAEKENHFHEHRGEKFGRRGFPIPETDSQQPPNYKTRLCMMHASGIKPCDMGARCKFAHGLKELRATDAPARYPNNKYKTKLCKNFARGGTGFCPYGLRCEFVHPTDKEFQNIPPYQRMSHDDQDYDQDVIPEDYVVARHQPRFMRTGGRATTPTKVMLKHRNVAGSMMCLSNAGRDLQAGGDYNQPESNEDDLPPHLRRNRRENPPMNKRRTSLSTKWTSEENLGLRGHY
Calls of active or inactive are those of the source.
endpoint_label: EC50

Example molecules with recorded EC50:
In [3]: df
Out[3]:
                                   molecule  endpoint_label                 reading
0  O=C(O)CSc1cc(NS(=O)(=O)c2ccc(Br)cc2)c2ccccc2c1O            EC50        8.17 µM (active)
1  Cc1n[nH]c(C)c1N1C(=O)c2cccc3c(N4CCCCCC4)ccc(c23)C1=O            EC50  1.72 µM (inconclusive)
2  O=C(O)C1OC(Oc2cc3oc(-c4ccccc4)cc(=O)c3c(O)c2O)C(O)C(O)C1O (stereo not given)            EC50        11.9 µM (active)
3         O=C1c2ccccc2C(=O)C1c1ccc2ccccc2n1            EC50   > 300 µM (not active)

The record that follows has no EC50 shown yet.
Lookup result for COc1ccc(C2=CC3=C(Br)C(=O)C(C)(OC(=O)c4cccs4)C(=O)C3=CO2)cc1 (stereo not given) ; measured EC50: 29.1 µM (active)
